Provenance of the data: patent US20240075137A1

Reported values of gMFIr Cyno CD8+ T cells for individual entries
Biological target: T1, cynomolgus PVRIG on cells (cynomolgus, UniProt A0A2K5WVV8 41-322)
T1 construct: whole, on cells; also called cPVRIG; expi cPVRIG cells
T1 sequence: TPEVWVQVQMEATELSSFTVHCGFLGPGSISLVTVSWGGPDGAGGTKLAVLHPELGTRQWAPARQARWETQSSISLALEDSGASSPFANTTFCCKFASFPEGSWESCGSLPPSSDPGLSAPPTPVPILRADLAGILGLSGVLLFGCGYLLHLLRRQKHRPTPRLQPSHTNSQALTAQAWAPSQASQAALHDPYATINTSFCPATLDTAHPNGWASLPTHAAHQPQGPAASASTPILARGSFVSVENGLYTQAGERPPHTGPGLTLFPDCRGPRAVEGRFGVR
Experiment: FACS, cyno PBMC, CD8+ T cells, 10ug/ml
Number only, no unit.

1. CHA.7.528 (antibody, V domains shown) VH: EVQVQQSGPELVKPGASVKISCKASGYTFTKSNMHWVKQSHGKSLEWIGYIYPYNGGTGYNQNFKSKATLTVDISSSTAYMELRSLTLEDSAVYLCAREADYYGNRGQFDYWGQGTLVTVSA VL: DIQMTQSPASLSVSVGETVTITCRASDNIFSNLAWYHQKQGKSPHLLVYGATNLADGVPSRFSGSGSGTQYSLKINSLQSEDFGDYYCQHFWGTPYTFGGGTKLEIK ... 1.18

// next item, gMFIr Cyno CD8+ T cells requested
Exercise: Quote gMFIr Cyno CD8+ T cells reported for CHA.7.530 (antibody, V domains shown) VH: QVQLQQSGAELMRPGTSVKVSCKASGYAFTNHLIEWIKQRPGQGLEWIGVINPGSDSTDYNEKFKDKATLTADKSSSTAYMQLSSLTSDDSAVYFCARSLYYNSWFVYWGQGTLVTVSA VL: DIQMTQSPASLSASVGETVTITCRASENIYSYLAWYQQKRGKSPQLLVYNAKTLVEGVPSRFSGSGSGTQFSLKINSLQPEDFGSYYCQHHYGTPYTFGGGTKLEIK please.
Solution: 1.89
